Hi there, I'd appreciate the recorded pest or weed control at 100 ppm for every entry that follows.
# Test system: Zymoseptoria tritici
# Procedure details: Leaf Blotch of Wheat fungicidal activity (SEPTTR)
# Format: in vivo
# Reported conditions: 24 h, wheat, high volume, 100 ppm, 1 Day Protectant, read-out: SEPTTR 1DP % Control rating

Hi! Can you tell me pest or weed control at 100 ppm for each of these compounds?
1. COc1ccnc(C(=O)N[C@@H](C)C(=O)O[C@@H](C)[C@@H](Oc2ccc(Cl)cc2Cl)c2ccccc2)c1O [Example 134]
2. CCOc1cc(F)ccc1[C@@H](Oc1ccccc1)[C@H](C)OC(=O)[C@H](C)NC(=O)c1nccc(OC)c1O [Example 168]
3. COc1ccnc(C(=O)N[C@@H](C)C(=O)O[C@@H](C)[C@H](Oc2cc(F)ccc2F)c2ccccc2)c1O [Example 121]

Result:
> 80%
> 80%
< 80%

* * *

# Tested on: Zymoseptoria tritici
# Procedure details: Leaf Blotch of Wheat fungicidal activity (SEPTTR)
# Assay type: in vivo
# Reported conditions: 72 h, Low Volume Cereal Activity at 121.5 g/Ha, 3 Day Curative, read-out: SEPTTR 3DC (Wheat Leaf Blotch, 3 Day Curative)
Property: pest or weed control at 121.5 g/ha

* COc1cc(F)ccc1[C@@H](OC(=O)C1CC1)[C@H](C)OC(=O)[C@H](C)NC(=O)c1nccc(OC)c1OC(C)=O | < 80%
* COc1ccnc(C(=O)N[C@@H](C)C(=O)O[C@H](C)[C@@H](Oc2ccccc2)c2ccccc2)c1OCOC(C)=O | > 80%
* CCOc1cc(F)ccc1[C@@H](Oc1ccccc1)[C@H](C)OC(=O)[C@H](C)NC(=O)c1nccc(OC)c1OC(C)=O | > 80%
* COc1ccnc(C(=O)N[C@@H](C)C(=O)O[C@@H](C)[C@H](Oc2ccc(F)cc2)c2ccccc2)c1OCOC(C)=O | > 80%
* COc1cc(F)ccc1[C@@H](OCC(F)F)[C@H](C)OC(=O)[C@H](C)NC(=O)c1nccc(OC)c1OC(C)=O | > 80%
* COc1ccnc(C(=O)N[C@@H](C)C(=O)O[C@@H](C)[C@H](Oc2ccccc2)c2ccc(C)cc2F)c1OCOC(C)=O | > 80%
* COc1cc(F)ccc1[C@@H](Oc1ccc(C)cc1)[C@H](C)OC(=O)[C@H](C)NC(=O)c1nccc(OC)c1OC(C)=O | > 80%
* COc1ccnc(C(=O)N[C@@H](C)C(=O)O[C@@H](C)[C@H](OCC2CC2)c2ccccc2)c1OCOC(C)=O | > 80%

Hi! Can you tell me pest or weed control at 121.5 g/ha for each of these molecules?
1. COc1ccnc(C(=O)N[C@@H](C)C(=O)O[C@@H](C)[C@H](Oc2ccccc2)c2ccccc2)c1OC(C)=O
2. COc1ccnc(C(=O)N[C@@H](C)C(=O)O[C@@H](C)[C@H](Oc2ccc(Cl)cc2Cl)c2ccccc2)c1OC(C)=O
3. COc1ccnc(C(=O)N[C@@H](C)C(=O)O[C@@H](C)[C@H](Oc2cc(F)ccc2F)c2ccccc2)c1OCOC(C)=O
4. COc1ccnc(C(=O)N[C@@H](C)C(=O)O[C@@H](C)C(Oc2ccccc2)c2nccs2)c1OC(C)=O (some centres unmarked)
5. COc1ccnc(C(=O)N[C@@H](C)C(=O)O[C@@H](C)[C@@H](Oc2ccccc2)c2ccccc2)c1OC(=O)C(C)C
6. COc1ccnc(C(=O)N[C@@H](C)C(=O)O[C@@H](C)[C@@H](OCC(C)C)c2ccccc2)c1OCOC(C)=O

Result:
1. > 80%
2. > 80%
3. < 80%
4. < 80%
5. < 80%
6. < 80%

* * *

# System: Phakopsora pachyrhizi
# Procedure details: Asian Soybean Rust fungicidal activity (PHAKPA)
# Reported conditions: Phakopsora pachyrhizi, in Glycine max, 24 h, read-out: PHAKPA 1DP % Control rating, soybean, high volume, 25 ppm, 1 Day Protectant
Hi there, I'd appreciate the recorded pest or weed control at 25 ppm for every entry that follows.

Answered examples (3):
* COc1ccccc1[C@@H](Oc1ccccc1)[C@H](C)OC(=O)[C@H](C)NC(=O)c1nccc(OC)c1OCOC(C)=O | > 80%
* COc1ccnc(C(=O)N[C@@H](C)C(=O)O[C@@H](C)[C@H](OCC2CC2)c2cccc(-c3ccccc3)c2)c1OCOC(C)=O | > 80%
* C=CCOc1cc(F)ccc1[C@@H](Oc1ccccc1)[C@H](C)OC(=O)[C@H](C)NC(=O)c1nccc(OC)c1OC(C)=O | < 80%

Task: Please look up its pest or weed control at 25 ppm: COc1cc(C)ccc1[C@@H](Oc1ccc(C)cc1)[C@H](C)OC(=O)[C@H](C)NC(=O)c1nccc(OC)c1OC(C)=O
Result: < 80%

* * *

Hi there, I'd appreciate the recorded pest or weed control at 25 ppm for every entry that follows.
# System: Phakopsora pachyrhizi
# Procedure details: Asian Soybean Rust fungicidal activity (PHAKPA)
# Reported conditions: Phakopsora pachyrhizi, in Glycine max, 72 h, read-out: PHAKPA 3DC % Control rating, soybean, high volume, 25 ppm, 3 Day Curative

- COc1ccnc(C(=O)N[C@@H](C)C(=O)O[C@@H](C)[C@H](Oc2ccccc2)c2ccc(F)cc2C)c1OCOC(C)=O: < 0%

Hi! Can you tell me pest or weed control at 25 ppm for each of these compounds?
1. COc1ccnc(C(=O)N[C@@H](C)C(=O)O[C@@H](C)[C@H](Oc2ccccc2)c2ccc(F)cc2)c1OC(C)=O
2. COc1ccnc(C(=O)N[C@@H](C)C(=O)O[C@@H](C)[C@H](Oc2ccccc2)c2ccc(F)cc2Cl)c1OCOC(C)=O
3. COc1ccnc(C(=O)N[C@@H](C)C(=O)O[C@@H](C)[C@H](Oc2ccccc2Cl)c2ccccc2)c1OCOC(C)=O
4. COc1ccnc(C(=O)N[C@@H](C)C(=O)O[C@@H](C)[C@H](Oc2cccc(F)c2)c2ccccc2)c1OC(C)=O
5. COc1ccnc(C(=O)N[C@@H](C)C(=O)O[C@@H](C)[C@H](OCC2CC2)c2ccccc2)c1OC(C)=O

Result:
< 80%
< 80%
< 80%
< 80%
< 80%

* * *

Hi there, I'd appreciate the recorded pest or weed control at 25 ppm for every entry that follows.
# Test system: Phakopsora pachyrhizi
# Procedure details: Asian Soybean Rust fungicidal activity (PHAKPA)
# Reported conditions: Phakopsora pachyrhizi, in Glycine max, 72 h, read-out: PHAKPA 3DC % Control rating, soybean, high volume, 25 ppm, 3 Day Curative

• COc1ccnc(C(=O)N[C@@H](C)C(=O)O[C@@H](C)[C@H](Oc2ccccc2)c2ccccc2)c1OC(C)=O = < 80%
• COc1ccnc(C(=O)N[C@@H](C)C(=O)O[C@@H](C)[C@H](Oc2ccccc2)c2cccc3ccccc23)c1OCOC(C)=O = < 0%
• COc1ccnc(C(=O)N[C@@H](C)C(=O)O[C@@H](C)[C@H](Oc2ccccc2)c2ccc(F)cc2OCC2CC2)c1OC(C)=O = < 0%

Hi! Can you tell me pest or weed control at 25 ppm for each of these compounds?
1. COc1ccnc(C(=O)N[C@@H](C)C(=O)O[C@@H](C)[C@H](Oc2ccccc2)c2ccc(F)cc2OC(C)=O)c1OC(C)=O
2. COc1ccnc(C(=O)N[C@@H](C)C(=O)O[C@@H](C)[C@H](OCC2CC2)c2cccc(-c3ccccc3)c2)c1OCOC(C)=O
3. COc1ccccc1[C@@H](Oc1ccccc1)[C@H](C)OC(=O)[C@H](C)NC(=O)c1nccc(OC)c1OCOC(C)=O

Result:
["< 80%", "< 80%", "< 0%"]

* * *

# Test system: Puccinia triticina
# Procedure details: Wheat Brown Rust fungicidal activity (PUCCRT)
# Format: in vivo
# Reported conditions: 24 h, Low Volume Cereal Activity at 121.5 g/Ha, 1 Day Protectant, read-out: PUCCRT 1DP (Wheat Brown Rust, 1 Day Protectant)
Property: pest or weed control at 121.5 g/ha

* COc1ccnc(C(=O)N[C@@H](C)C(=O)O[C@@H](C)[C@H](Oc2ccc(C)cc2)c2ccccc2)c1OCOC(C)=O [Example 248] | > 80%
* COc1ccnc(C(=O)N[C@@H](C)C(=O)O[C@@H](C)[C@@H](OCC2CC2)c2ccccc2)c1OC(C)=O [Example 232] | > 80%
* COc1cc(F)ccc1[C@@H](OC(=O)C(C)(C)C)[C@H](C)OC(=O)[C@H](C)NC(=O)c1nccc(OC)c1OC(C)=O [Example 296] | > 80%

Hi! Can you tell me pest or weed control at 121.5 g/ha for each of these compounds?
1. COc1ccnc(C(=O)N[C@H](C(=O)O[C@@H](C)[C@H](Oc2ccc(C(F)(F)F)cc2)c2ccccc2)C(C)C)c1OCOC(C)=O [Example 197]
2. COc1ccnc(C(=O)N[C@@H](C)C(=O)O[C@@H](C)[C@@H](Oc2ccc(Cl)cc2Cl)c2ccccc2)c1OC(=O)C(C)C [Example 215]

Result:
1: > 80%; 2: < 80%

Task: Lab note: need pest or weed control at 121.5 g/ha for COc1ccnc(C(=O)N[C@@H](C)C(=O)O[C@@H](C)[C@H](Oc2ccc(Cl)cc2)c2ccccc2)c1OCOC(C)=O [Example 201] on Puccinia triticina, anyone have it?
Result: > 80%
